Biological target: F508delCFTR (Homo sapiens, UniProt P13569, DEL508-508)
Construct: expressed in transfected cells; host or cells: CFBE41o- human lung-derived epithelial cell line, doxycycline-inducible expression
Sequence (P13569 with tags, fused parts or gaps DEL508-508): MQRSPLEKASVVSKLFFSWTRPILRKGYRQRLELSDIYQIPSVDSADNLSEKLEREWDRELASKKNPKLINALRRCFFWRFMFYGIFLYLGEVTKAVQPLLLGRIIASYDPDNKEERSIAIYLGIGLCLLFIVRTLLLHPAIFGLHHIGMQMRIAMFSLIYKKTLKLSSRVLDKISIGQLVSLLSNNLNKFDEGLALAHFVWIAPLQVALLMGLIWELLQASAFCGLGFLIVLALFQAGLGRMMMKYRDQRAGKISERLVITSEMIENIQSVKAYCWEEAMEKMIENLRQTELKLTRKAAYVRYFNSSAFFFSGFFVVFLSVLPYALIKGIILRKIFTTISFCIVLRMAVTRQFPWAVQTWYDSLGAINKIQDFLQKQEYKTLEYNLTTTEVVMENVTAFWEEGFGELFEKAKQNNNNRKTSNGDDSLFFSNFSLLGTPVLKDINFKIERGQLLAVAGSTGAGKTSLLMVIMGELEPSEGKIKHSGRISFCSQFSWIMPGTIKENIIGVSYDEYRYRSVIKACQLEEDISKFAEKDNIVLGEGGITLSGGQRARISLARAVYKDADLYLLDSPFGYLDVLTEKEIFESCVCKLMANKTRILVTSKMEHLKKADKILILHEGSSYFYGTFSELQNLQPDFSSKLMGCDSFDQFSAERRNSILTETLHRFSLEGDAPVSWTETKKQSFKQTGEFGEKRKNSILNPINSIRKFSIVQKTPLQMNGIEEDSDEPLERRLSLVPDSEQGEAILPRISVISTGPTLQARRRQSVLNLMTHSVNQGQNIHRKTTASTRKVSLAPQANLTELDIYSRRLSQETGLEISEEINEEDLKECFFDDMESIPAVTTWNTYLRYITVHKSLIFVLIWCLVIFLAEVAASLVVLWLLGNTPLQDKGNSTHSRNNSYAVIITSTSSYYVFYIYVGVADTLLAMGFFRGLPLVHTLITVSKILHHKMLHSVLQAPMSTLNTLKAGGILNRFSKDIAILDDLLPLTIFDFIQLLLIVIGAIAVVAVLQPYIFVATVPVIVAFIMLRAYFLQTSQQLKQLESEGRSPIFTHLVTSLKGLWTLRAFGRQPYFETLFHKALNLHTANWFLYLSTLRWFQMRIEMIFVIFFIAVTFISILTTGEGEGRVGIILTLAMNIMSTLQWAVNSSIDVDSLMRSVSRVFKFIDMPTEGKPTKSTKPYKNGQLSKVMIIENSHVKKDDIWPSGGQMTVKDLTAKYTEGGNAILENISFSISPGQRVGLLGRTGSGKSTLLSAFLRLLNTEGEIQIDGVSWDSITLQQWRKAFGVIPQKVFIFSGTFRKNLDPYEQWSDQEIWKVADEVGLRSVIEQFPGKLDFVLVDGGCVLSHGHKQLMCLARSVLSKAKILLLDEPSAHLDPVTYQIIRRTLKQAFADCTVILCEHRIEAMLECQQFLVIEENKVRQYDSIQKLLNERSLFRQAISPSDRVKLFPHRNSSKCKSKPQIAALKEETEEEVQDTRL
Experiment: Cell Surface Expression-Horse Radish Peroxidase (CSE-HRP) assay in CFBE41o-F508delCFTR-HRP cells
Format: cell-based
Details: without co-corrector; normalized to on-plate positive control corrector (2 μM)
OBSERVABLE: Maximum % activity (without co-corrector) (%)

Examples with answers:
# COMPOUND, TGT, EXPERIMENTAL_RESULT
rows = [
    ("CCOc1cnc([C@@H]2C[C@]2(C(=O)NS(=O)(=O)c2cccc3nc(C)ccc23)c2cc(C)ccc2OC)cn1 (single isomer, unassigned) [Example 65]", "F508delCFTR (Homo sapiens, UniProt P13569, DEL508-508)", 394),
    ("COc1cncc([C@H]2C[C@@]2(C(=O)NS(=O)(=O)c2cccc3nc(C)ccc23)c2cc(C)ccc2OC)c1 (single isomer, unassigned) [Example 52]", "F508delCFTR (Homo sapiens, UniProt P13569, DEL508-508)", 608),
    ("COc1ccc(C)cc1[C@@]1(C(=O)NS(=O)(=O)c2cccc3nc(C)ccc23)C[C@H]1c1cnc(C(C)C)cn1 (racemic) [Example 61]", "F508delCFTR (Homo sapiens, UniProt P13569, DEL508-508)", 700),
]

(I) COc1ccc(C)cc1[C@]1(C(=O)NS(=O)(=O)c2cccc3nc(C)ccc23)C[C@@H]1c1ccc(C)nc1 [Example 11]
(II) CCOc1cccc([C@@H]2C[C@]2(C(=O)NS(=O)(=O)c2cccc3nc(C)ccc23)c2cc(C)ccc2OC)n1 [Example 56]
(Q) Please indicate which entry, I or II , has the lower recorded Maximum % activity (without co-corrector) value. Indicate which entry you chose by stating its label.
(A) II

###

Target: F508del/F508del CFTR (Homo sapiens, UniProt P13569, DEL508-508)
Construct: cells isolated from CF patients with the homozygous mutation; endogenous in cells; host or cells: primary human bronchial epithelial (hBE) cells from CF patients homozygous for F508del
Sequence (P13569 with tags, fused parts or gaps DEL508-508): as above
Test: Trans-Epithelial Current Clamp (TECC) assay using primary human bronchial epithelial cells
Assay type: cell-based
Details: maximum percent activity relative to positive control (co-corrector 0.15 μM + potentiator 0.45 μM = 100%); primary hBE cells F508del/F508del
OBSERVABLE: Emax (% Dual)

Illustrative cases are given below, each with its answer.
# COMPOUND, Emax (% Dual)
rows = [
    ("CCOc1cccc([C@@H]2C[C@]2(C(=O)NS(=O)(=O)c2cccc3nc(C)ccc23)c2cc(C)ccc2OC)n1", 290),
    ("COc1nccc([C@@H]2C[C@]2(C(=O)NS(=O)(=O)c2cccc3nc(C)ccc23)c2cc(C)ccc2OC)n1 (racemic) [Example 95]", 209),
    ("COc1nccc([C@H]2C[C@@]2(C(=O)NS(=O)(=O)c2cccc3nc(C)ccc23)c2cc(C)ccc2OC)n1 (single isomer, unassigned)", 201),
    ("COc1ccc(C)cc1[C@@]1(C(=O)NS(=O)(=O)c2cccc3nc(C)ccc23)C[C@H]1c1ccc(C)cc1 (single isomer, unassigned) [Example 6]", 378),
    ("COc1ccc(C)cc1[C@]1(C(=O)NS(=O)(=O)c2cccc3nc(C)ccc23)C[C@@H]1c1cnc(OC)c(OC)c1", 350),
]

(1) COc1ccc(C)cc1[C@]1(C(=O)NS(=O)(=O)c2cccc3nc(C)ccc23)C[C@@H]1c1ccc(C(C)C)nc1OC (single isomer, unassigned)
(2) COc1ccc(C)cc1[C@]1(C(=O)NS(=O)(=O)c2cccc3nc(C)ccc23)C[C@@H]1c1cccc(N(C)C)n1
(Q) Of the two listed items, which has the higher Emax (% Dual)? First: 1 Second: 2 Bench note: the answer is the label of the chosen record.
(A) 2

(A) COc1cccc([C@@H]2C[C@]2(C(=O)NS(=O)(=O)c2cccc3nc(C)ccc23)c2cc(C)ccc2OC)n1
(B) COc1cnc([C@@H]2C[C@]2(C(=O)NS(=O)(=O)c2cccc3nc(C)ccc23)c2cc(C)ccc2OC)cn1 (racemic) [Example 39]
(Q) Which numeric Emax (% Dual) is bigger, that of A or that of B ? Response format: the label of the selected entry.
(A) B
(B: 317 % Dual, A: 193 % Dual)

###

Molecular target: F508del/F508del CFTR (Homo sapiens, UniProt P13569, DEL508-508)
Construct: cells isolated from CF patients with the homozygous mutation; endogenous in cells; host or cells: primary human bronchial epithelial (hBE) cells from CF patients homozygous for F508del
Experiment: Trans-Epithelial Current Clamp (TECC) assay using primary human bronchial epithelial cells
Format: cell-based
Conditions: maximum percent activity relative to positive control (co-corrector 0.15 μM + potentiator 0.45 μM = 100%); primary hBE cells F508del/F508del
OBSERVABLE: Emax (% Dual)

# COMPOUND, OBSERVABLE, UNIT_ABBREV, EXPERIMENTAL_RESULT
rows = [
    ("COc1ccc(C)cc1[C@@]1(C(=O)NS(=O)(=O)c2cccc3nc(C)ccc23)C[C@H]1c1cnc(C(C)C)cn1 (single isomer, unassigned) [Example 63]", "Emax (% Dual)", "% Dual", 315),
    ("COc1cncc([C@H]2C[C@@]2(C(=O)NS(=O)(=O)c2cccc3nc(C)ccc23)c2cc(C)ccc2OC)c1 (single isomer, unassigned)", "Emax (% Dual)", "% Dual", 283),
    ("COc1ccc(C)cc1[C@]1(C(=O)NS(=O)(=O)c2cccc3nc(C)ccc23)C[C@@H]1c1cccc(C(F)(F)F)c1 (single isomer, unassigned) [Example 23]", "Emax (% Dual)", "% Dual", 294),
    ("COc1ccc(C)cc1[C@]1(C(=O)NS(=O)(=O)c2cccc3nc(C)ccc23)C[C@@H]1c1cccc(C(F)F)n1", "Emax (% Dual)", "% Dual", 289),
    ("CCOc1cccc([C@H]2C[C@@]2(C(=O)NS(=O)(=O)c2cccc3nc(C)ccc23)c2cc(C)ccc2OC)n1", "Emax (% Dual)", "% Dual", 341),
    ("COc1ccc(C)cc1[C@]1(C(=O)NS(=O)(=O)c2cccc3nc(C)ccc23)C[C@@H]1c1cnc(OC)c(F)c1", "Emax (% Dual)", "% Dual", 269),
]

###

Target: F508delCFTR (Homo sapiens, UniProt P13569, DEL508-508)
Construct: expressed in transfected cells; host or cells: CFBE41o- human lung-derived epithelial cell line, doxycycline-inducible expression
Assay: Cell Surface Expression-Horse Radish Peroxidase (CSE-HRP) assay in CFBE41o-F508delCFTR-HRP cells
Type: cell-based
Conditions: with co-corrector (2 μM); CFBE41o-F508delCFTR-HRP cells, 18-24 hours at 33° C., luminescence; read-out: EC50 (with co-corrector)
OBSERVABLE: EC50 (µM)

# COMPOUND, EXPERIMENTAL_RESULT
data = [
    ("COc1ccc(C)cc1[C@]1(C(=O)NS(=O)(=O)c2cccc3nc(C)ccc23)C[C@@H]1c1ccc(C(C)C)nc1", 1.61),
    ("COc1ccc(C)cc1[C@@]1(C(=O)NS(=O)(=O)c2cccc3nc(C)ccc23)C[C@H]1c1cnc(C(C)C)cn1 (single isomer, unassigned) [Example 63]", 0.89),
    ("COc1ccc(C)cc1[C@@]1(C(=O)NS(=O)(=O)c2cccc3nc(C)ccc23)C[C@H]1c1cncc(C)n1 (racemic) [Example 35]", 1.22),
]

###

Molecular target: F508delCFTR (Homo sapiens, UniProt P13569, DEL508-508)
Construct: expressed in transfected cells; host or cells: CFBE41o- human lung-derived epithelial cell line, doxycycline-inducible expression
Assay: Cell Surface Expression-Horse Radish Peroxidase (CSE-HRP) assay in CFBE41o-F508delCFTR-HRP cells
Type: cell-based
Details: with co-corrector (2 μM); normalized to on-plate positive control corrector (2 μM)
OBSERVABLE: Maximum % activity (with co-corrector) (%)

# COMPOUND, OBSERVABLE, EXPERIMENTAL_RESULT
records = [
    ("COc1ccc(C)cc1[C@]1(C(=O)NS(=O)(=O)c2cccc3nc(C)ccc23)C[C@@H]1c1ccc(C)nc1C", "Maximum % activity (with co-corrector)", 876),
    ("COc1cncc([C@@H]2C[C@]2(C(=O)NS(=O)(=O)c2cccc3nc(C)ccc23)c2cc(C)ccc2OC)n1 (single isomer, unassigned)", "Maximum % activity (with co-corrector)", 545),
]

(A) COc1ccc(C)cc1[C@@]1(C(=O)NS(=O)(=O)c2cccc3nc(C)ccc23)C[C@H]1c1cnc(C)cn1 (single isomer, unassigned)
(B) COc1ccc(C)cc1[C@]1(C(=O)NS(=O)(=O)c2cccc3nc(C)ccc23)C[C@@H]1c1cnc(C)cn1 (racemic)
(Q) Hi, I'm comparing A with B and wondering which one has the bigger number for Maximum % activity (with co-corrector). Any idea? State your choice using its label.
(A) B
